# TEST TARGET: Metabotropic glutamate receptor 3 (Rattus norvegicus) (UniProt P31422)
# TEST PROTOCOL: Negative allosteric modulation of rat mGlu3 receptor assessed as amplitude response at 30 uM relative to glutamate
Activity values for the compounds below.
// note: answer is a bare numeric in %

The examples below pair each entry with its known result.
C[C@@H]1CN(c2cnccc2F)C(=O)c2cc(COc3ccc(Cl)cn3)nn21 = 1.45
C[C@@H]1CN(c2cccc(F)c2)C(=O)c2cc(COc3ccc(F)cn3)nn21 = 1.44
COc1ccccc1OCc1cc2n(n1)[C@H](C)CN(c1ccc(F)cc1)C2=O = 2.32

Ask: Fill blank: measured Activity of the compound C[C@@H]1CN(c2ccc(F)cc2)C(=O)c2cc(COc3ccccc3Cl)nn21 is ____.
Reply: 1.63

Ask: Please report the recorded Activity for C[C@@H]1CN(c2ccccc2Cl)C(=O)c2cc(COc3ccc(Cl)cn3)nn21 .
Reply: 1.87

Ask: Look up Activity: C[C@@H]1CN(c2ccc(F)cc2)C(=O)c2cc(COc3ccc(F)cn3)nn21
Reply: 1.71

---

# TEST PROTOCOL: Plasma clearance in rat at 0.2 mg/kg, iv administered as cassette dose
# Assay type: ADME, organism-based
PROPERTY: clearance (mL/min/kg)
Respond with the bare value in mL/min/kg.

Examples with their reported clearance follow.
C[C@@H]1CN(c2cncc(F)c2)C(=O)c2cc(COc3ccc(Cl)cn3)nn21 = 50
C[C@@H]1CN(c2ccc(F)cc2)C(=O)c2cc(COc3ccc(Cl)cn3)nn21 = 29
C[C@@H]1CN(c2cccnc2F)C(=O)c2cc(COc3ccc(Cl)cn3)nn21 = 37
C[C@@H]1CN(c2cc(F)cc(C#N)c2)C(=O)c2cc(COc3ccc(Cl)cn3)nn21 = 13
C[C@@H]1CN(c2ccc(F)cc2)C(=O)c2cc(COc3ccc(F)cn3)nn21 = 82

Ask: Would you kindly share the measured clearance for CCOc1ccc(OCc2cc3n(n2)[C@H](C)CN(c2ccc(F)cc2)C3=O)cc1 ?
Reply: 82

Ask: Recorded clearance of C[C@@H]1CN(c2ccc(F)cc2)C(=O)c2cc(COc3ccc(F)cc3)nn21 , please.
Reply: 40

Ask: Request the reported clearance associated with C[C@@H]1CN(c2cncc(C#N)c2)C(=O)c2cc(COc3ccc(Cl)cn3)nn21
Reply: 22

Ask: Quick one: clearance of C[C@@H]1CN(c2cccnc2)C(=O)c2cc(COc3ccc(Cl)cn3)nn21 ?
Reply: 50

---

# TEST PROTOCOL: Plasma clearance in rat at 1 mg/kg, iv and 3 mg/kg, po
# Assay type: ADME, organism-based
PROPERTY: clearance
Be sure to follow the number with its unit.

Ask: Which clearance is reported for this molecule? C[C@@H]1CN(c2cccnc2F)C(=O)c2cc(COc3ccc(Cl)cn3)nn21
Reply: 30 mL/min/kg

---

# TEST TARGET: Cytochrome P450 2D6 (Homo sapiens, UniProt P10635)
# Sequence (P10635 whole entry): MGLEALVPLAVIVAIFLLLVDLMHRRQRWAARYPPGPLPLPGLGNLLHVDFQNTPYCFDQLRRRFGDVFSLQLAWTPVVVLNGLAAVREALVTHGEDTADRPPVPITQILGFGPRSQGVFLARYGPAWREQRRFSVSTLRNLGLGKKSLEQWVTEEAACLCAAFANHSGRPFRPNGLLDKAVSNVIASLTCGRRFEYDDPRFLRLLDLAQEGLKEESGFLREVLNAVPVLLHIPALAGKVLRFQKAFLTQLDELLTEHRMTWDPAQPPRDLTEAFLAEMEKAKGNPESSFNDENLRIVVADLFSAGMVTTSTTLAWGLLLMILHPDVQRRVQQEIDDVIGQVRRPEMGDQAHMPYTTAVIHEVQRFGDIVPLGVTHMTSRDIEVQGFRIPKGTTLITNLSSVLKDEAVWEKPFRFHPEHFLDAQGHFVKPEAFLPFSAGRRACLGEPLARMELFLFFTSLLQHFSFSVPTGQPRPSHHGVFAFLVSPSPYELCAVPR
PROPERTY: IC50

Ask: Request the reported IC50 associated with C[C@@H]1CN(c2cccnc2F)C(=O)c2cc(COc3ccc(Cl)cn3)nn21
Reply: > 30 µM

---

# TEST TARGET: Metabotropic glutamate receptor 3 (Rattus norvegicus, UniProt P31422)
# Sequence (P31422 whole entry): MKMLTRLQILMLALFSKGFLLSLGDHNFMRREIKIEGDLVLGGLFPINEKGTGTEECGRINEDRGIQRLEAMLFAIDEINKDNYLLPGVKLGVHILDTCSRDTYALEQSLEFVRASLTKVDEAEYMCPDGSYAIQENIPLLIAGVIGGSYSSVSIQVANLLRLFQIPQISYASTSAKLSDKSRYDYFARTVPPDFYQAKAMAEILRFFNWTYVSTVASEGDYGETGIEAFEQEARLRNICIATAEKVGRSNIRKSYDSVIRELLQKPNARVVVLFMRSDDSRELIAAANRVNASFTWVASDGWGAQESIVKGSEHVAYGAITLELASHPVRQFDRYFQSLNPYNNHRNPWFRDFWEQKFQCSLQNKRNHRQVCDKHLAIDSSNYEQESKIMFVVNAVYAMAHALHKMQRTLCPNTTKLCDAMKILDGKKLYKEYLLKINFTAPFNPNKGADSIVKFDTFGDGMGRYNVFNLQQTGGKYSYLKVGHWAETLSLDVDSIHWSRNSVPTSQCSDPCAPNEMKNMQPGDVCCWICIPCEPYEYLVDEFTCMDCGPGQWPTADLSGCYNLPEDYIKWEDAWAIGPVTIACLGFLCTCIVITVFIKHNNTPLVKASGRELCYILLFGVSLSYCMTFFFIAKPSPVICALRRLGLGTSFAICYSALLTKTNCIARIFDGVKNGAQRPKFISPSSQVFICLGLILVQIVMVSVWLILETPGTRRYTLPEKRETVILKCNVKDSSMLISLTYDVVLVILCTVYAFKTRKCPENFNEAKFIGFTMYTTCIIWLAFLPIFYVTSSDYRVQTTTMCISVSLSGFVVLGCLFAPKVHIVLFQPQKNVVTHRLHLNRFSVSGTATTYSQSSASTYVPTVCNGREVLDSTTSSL
# TEST PROTOCOL: Negative allosteric modulation of rat mGlu3 receptor assessed as calcium mobilization by cell based fluorescence assay
Catalogue of molecules with associated pIC50
Units for pIC50: none; it is -log10 of a concentration expressed in mol/L.

These solved cases illustrate the format of a correct answer.
C[C@@H]1CN(c2ccc(F)cc2)C(=O)c2cc(COc3ccccc3)nn21 = 6.57
C[C@@H]1CN(c2cncc(F)c2)C(=O)c2cc(COc3ccc(Cl)cn3)nn21 = 6.32
C[C@@H]1CN(c2ccc(F)cc2)C(=O)c2cc(COc3ccccc3Cl)nn21 = 6.27

Pending molecule:
Ask: Can you look up the measured pIC50 of C[C@@H]1CN(c2ccc(F)cc2)C(=O)c2cc(COc3ccc(C#N)cc3)nn21 for me?
Reply: 6.11

---

# TEST TARGET: Metabotropic glutamate receptor 3 (Rattus norvegicus) (UniProt P31422)
# TEST PROTOCOL: Negative allosteric modulation of rat mGlu3 receptor assessed as amplitude response at 30 uM relative to glutamate
Please use Fulfilled for Activity under 2% and Not fulfilled for everything else, ties included.

Would you please look over these solved cases?
Cc1ccc(N2C[C@@H](C)n3nc(COc4ccc(F)cn4)cc3C2=O)cc1 = Fulfilled
Cc1ccnc(OCc2cc3n(n2)[C@H](C)CN(c2ccc(F)cc2)C3=O)c1 = Fulfilled
C[C@@H]1CN(c2ccc(F)cc2)C(=O)c2cc(COc3ccc(C(F)(F)F)cc3)nn21 = Not fulfilled

// next entry
Ask: Hi there! Is Activity for C[C@@H]1CN(c2ccccn2)C(=O)c2cc(COc3ccc(Cl)cn3)nn21 below 2%, do you know?
Reply: Fulfilled

---

# TEST TARGET: Metabotropic glutamate receptor 3 (Rattus norvegicus)
# TEST PROTOCOL: Negative allosteric modulation of rat mGlu3 receptor assessed as amplitude response at 30 uM relative to glutamate
Listed next: entries and their corresponding Activity.
Numeric only. Scale: %

Ask: Could you tell me which Activity is on file for COc1ccc(N2C[C@@H](C)n3nc(COc4ccc(Cl)cn4)cc3C2=O)cc1 ?
Reply: 2.07

Ask: Tell me the measured Activity of C[C@@H]1CN(c2cc(F)ccc2F)C(=O)c2cc(COc3ccc(F)cn3)nn21 , please.
Reply: 2.62

Ask: Entry Cc1cccc(OCc2cc3n(n2)[C@H](C)CN(c2ccc(F)cc2)C3=O)c1 : reported Activity = ?
Reply: 2.35

---

Parameter: pEC50. Scope: all listed entries.
# TEST TARGET: Metabotropic glutamate receptor 5 (Rattus norvegicus, UniProt P31424)
# Sequence (P31424 whole entry): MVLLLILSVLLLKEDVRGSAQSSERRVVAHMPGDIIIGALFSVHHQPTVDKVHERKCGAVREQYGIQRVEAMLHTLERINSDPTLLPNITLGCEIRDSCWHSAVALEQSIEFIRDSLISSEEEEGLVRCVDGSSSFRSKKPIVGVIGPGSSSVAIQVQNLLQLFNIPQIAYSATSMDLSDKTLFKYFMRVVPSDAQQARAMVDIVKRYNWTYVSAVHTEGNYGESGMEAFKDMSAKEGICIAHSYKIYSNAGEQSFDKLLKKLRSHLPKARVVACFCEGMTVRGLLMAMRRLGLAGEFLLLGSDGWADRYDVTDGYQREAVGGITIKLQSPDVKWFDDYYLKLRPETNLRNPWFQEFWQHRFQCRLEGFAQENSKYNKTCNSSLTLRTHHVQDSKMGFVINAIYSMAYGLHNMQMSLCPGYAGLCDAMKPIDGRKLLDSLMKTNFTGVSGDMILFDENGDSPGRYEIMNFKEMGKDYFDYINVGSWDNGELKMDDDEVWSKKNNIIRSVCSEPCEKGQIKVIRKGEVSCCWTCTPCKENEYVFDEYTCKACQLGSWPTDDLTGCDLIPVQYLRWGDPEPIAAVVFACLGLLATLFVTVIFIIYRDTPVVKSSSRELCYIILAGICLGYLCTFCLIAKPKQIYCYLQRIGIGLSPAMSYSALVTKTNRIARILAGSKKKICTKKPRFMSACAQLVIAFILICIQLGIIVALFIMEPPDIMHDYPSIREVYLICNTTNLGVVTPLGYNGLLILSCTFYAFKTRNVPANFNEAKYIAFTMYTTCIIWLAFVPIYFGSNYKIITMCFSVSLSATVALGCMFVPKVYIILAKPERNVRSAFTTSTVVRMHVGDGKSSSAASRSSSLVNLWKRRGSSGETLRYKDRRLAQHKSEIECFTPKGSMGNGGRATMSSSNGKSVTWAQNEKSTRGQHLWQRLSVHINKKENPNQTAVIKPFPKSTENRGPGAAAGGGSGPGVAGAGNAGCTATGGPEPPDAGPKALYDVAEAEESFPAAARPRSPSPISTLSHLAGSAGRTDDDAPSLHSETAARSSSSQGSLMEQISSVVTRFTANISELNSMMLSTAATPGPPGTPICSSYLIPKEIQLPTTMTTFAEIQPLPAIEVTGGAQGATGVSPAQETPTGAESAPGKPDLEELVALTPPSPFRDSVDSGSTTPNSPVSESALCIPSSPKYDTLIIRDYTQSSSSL
# TEST PROTOCOL: Modulation of rat mGlu5 receptor assessed as calcium mobilization by cell based fluorescence assay
Lab note: report pEC50 as minus log10 of the concentration in molar units, number only.

Examples with their reported pEC50 follow.
C[C@@H]1CN(c2ccccc2Cl)C(=O)c2cc(COc3ccc(Cl)cn3)nn21 = 5.26
C[C@@H]1CN(c2ccc(F)cc2)C(=O)c2cc(COc3ccc(Cl)cc3)nn21 = 6.22
C[C@@H]1CN(c2ccc(Cl)cc2)C(=O)c2cc(COc3ccc(Cl)cn3)nn21 = 5.48
C[C@@H]1CN(c2cccc(F)c2F)C(=O)c2cc(COc3ccc(F)cn3)nn21 = 5.68
Cc1ccccc1OCc1cc2n(n1)[C@H](C)CN(c1ccc(F)cc1)C2=O = 5.82

Ask: What does the record list as pEC50 for C[C@@H]1CN(c2ccc(F)cc2F)C(=O)c2cc(COc3ccc(Cl)cn3)nn21 ?
Reply: 5.59

Ask: Could you share which pEC50 value was measured for COc1ccc(N2C[C@@H](C)n3nc(COc4ccc(Cl)cn4)cc3C2=O)cc1 ?
Reply: 5.36

Ask: Tell me the measured pEC50 of Cc1ccccc1N1C[C@@H](C)n2nc(COc3ccc(Cl)cn3)cc2C1=O , please.
Reply: 5.64

Ask: Entry C[C@@H]1CN(c2cccc(Cl)c2)C(=O)c2cc(COc3ccc(Cl)cn3)nn21 : reported pEC50 = ?
Reply: 5.54

Ask: Name the recorded pEC50 for C[C@@H]1CN(c2ccccc2Cl)C(=O)c2cc(COc3ccc(F)cn3)nn21 .
Reply: 6.00

Ask: Reported pEC50, molecule Cc1cccc(OCc2cc3n(n2)[C@H](C)CN(c2ccc(F)cc2)C3=O)n1 : ____
Reply: 5.65

Ask: GET /values?readout=pEC50&item= C[C@@H]1CN(c2ccc(F)cc2)C(=O)c2cc(COc3ccc(F)cc3F)nn21
Reply: 6.51

Ask: Which pEC50 is reported for this molecule? Cc1cccc(N2C[C@@H](C)n3nc(COc4ccc(Cl)cn4)cc3C2=O)c1
Reply: 5.44

Ask: What measured pEC50 goes with C[C@@H]1CN(c2ccc(Cl)cc2)C(=O)c2cc(COc3ccc(F)cn3)nn21 ?
Reply: 6.44

---

# TEST TARGET: Cytochrome P450 3A4 (Homo sapiens, UniProt P08684)
# Sequence (P08684 whole entry): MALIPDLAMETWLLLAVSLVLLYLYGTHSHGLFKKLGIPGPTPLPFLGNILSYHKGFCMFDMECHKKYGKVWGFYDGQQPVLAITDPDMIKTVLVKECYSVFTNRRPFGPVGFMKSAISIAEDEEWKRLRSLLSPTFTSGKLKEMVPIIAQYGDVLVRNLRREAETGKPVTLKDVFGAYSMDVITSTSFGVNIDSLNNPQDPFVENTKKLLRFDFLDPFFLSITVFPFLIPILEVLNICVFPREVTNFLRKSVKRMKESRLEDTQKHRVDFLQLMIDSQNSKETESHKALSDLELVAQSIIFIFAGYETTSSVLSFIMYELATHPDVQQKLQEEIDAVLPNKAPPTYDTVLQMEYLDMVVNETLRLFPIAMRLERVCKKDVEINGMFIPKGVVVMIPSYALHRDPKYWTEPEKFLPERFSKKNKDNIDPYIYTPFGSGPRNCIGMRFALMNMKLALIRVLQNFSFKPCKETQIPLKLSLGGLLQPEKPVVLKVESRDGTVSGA
PROPERTY: IC50

Ask: Which value of IC50 has been reported for C[C@@H]1CN(c2cccnc2F)C(=O)c2cc(COc3ccc(Cl)cn3)nn21 in the records?
Reply: > 30 µM

---

# TEST PROTOCOL: Half life in rat at 0.2 mg/kg, iv administered as cassette dose
# Assay type: ADME, organism-based
# ASSAY SETUP: in vivo
Readings of half-life for the listed compounds
Entry rule: numbers only, all in min.

Below: 4 compounds and their reported half-life.
CCOc1ccc(OCc2cc3n(n2)[C@H](C)CN(c2ccc(F)cc2)C3=O)cc1 = 32
C[C@@H]1CN(c2cc(F)cc(C#N)c2)C(=O)c2cc(COc3ccc(Cl)cn3)nn21 = 194
C[C@@H]1CN(c2cncc(C#N)c2)C(=O)c2cc(COc3ccc(Cl)cn3)nn21 = 59
C[C@@H]1CN(c2ccc(F)cc2)C(=O)c2cc(COc3ccc(F)cn3)nn21 = 88

Ask: Sample C[C@@H]1CN(c2ccc(F)cc2)C(=O)c2cc(COc3ccc(F)cc3)nn21 — what was its half-life?
Reply: 95

Ask: Which half-life is listed for C[C@@H]1CN(c2cccnc2F)C(=O)c2cc(COc3ccc(Cl)cn3)nn21 ?
Reply: 42

Ask: Query: half-life; subject: C[C@@H]1CN(c2ccc(F)cc2)C(=O)c2cc(COc3ccc(Cl)cn3)nn21
Reply: 141

Ask: What value of half-life has been recorded for this entry: C[C@@H]1CN(c2cccnc2)C(=O)c2cc(COc3ccc(Cl)cn3)nn21
Reply: 21

Ask: Item C[C@@H]1CN(c2cncc(F)c2)C(=O)c2cc(COc3ccc(Cl)cn3)nn21 has what recorded half-life?
Reply: 30

All figures here come from ChEMBL document CHEMBL3616441.
